B1: CPEB3 Ribozyme (parent)
chain: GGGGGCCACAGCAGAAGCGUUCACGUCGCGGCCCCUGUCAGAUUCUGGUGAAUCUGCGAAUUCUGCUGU

variants of: B1; test: self-cleavage, relative activity (ratio to wild type); higher = more cleavage; co-transcriptional
Entries are grouped by self-cleavage into these classes: range 1 (below 0.2), range 2 (0.2 to below 0.6), range 3 (0.6 or more)

These solved cases illustrate the format of a correct answer.
1) C34U U61C	range 3
2) G28C U69C	range 2
3) G14C G19U	range 1
4) A10C C66U	range 3
5) G3A U26C	range 2

Hello team, could you let me know which band the following variant falls into: U38G U61G
range 2

Hello team, could you let me know which band the following variant falls into: C6G U61A
range 1

Hello team, could you let me know which band the following variant falls into: A10U C12U
range 3

Hello team, could you let me know which band the following variant falls into: G4C C27G
range 1

Hello team, could you let me know which band the following variant falls into: G37U C66U
range 2

Hello team, could you let me know which band the following variant falls into: G30U C63U
range 2

Hello team, could you let me know which band the following variant falls into: G1A G31U
range 1

Hello team, could you let me know which band the following variant falls into: U43C C54A
range 3

Hello team, could you let me know which band the following variant falls into: A8C G25U
range 1
